Please respond with reported Activity for every item in the list.
# Test system: Human alphaherpesvirus 1
# assayProcedure: Antiviral activity against HSV1 in Vero cells assessed as plaque infectivity reduction at 10 ug/ml
# Assay type: functional
# Design: scale not given: the % may be the effect or the level left
Respond numerically; units are % and should not be typed.

Task: In one line, give reported Activity of the entry COc1ccc(C2=C/C(=C\c3cn(-c4ccccc4)nc3-c3ccccc3)C(=O)N2Cc2ccccc2)cc1 .
Result: 23

Task: In one line, give reported Activity of the entry O=C1OC(c2ccc(Cl)cc2)=C/C1=C\c1cn(-c2ccccc2)nc1-c1ccccc1 .
Result: 0

Task: In one line, give reported Activity of the entry COc1ccc(-c2cc(Cc3cn(-c4ccccc4)nc3-c3ccccc3)c(=O)[nH]n2)cc1 .
Result: 21

Task: In one line, give reported Activity of the entry O=C(NNC(=O)c1ccccc1)/C(=C/c1cn(-c2ccccc2)nc1-c1ccccc1)CC(=O)c1ccc(Cl)cc1 .
Result: 10

Task: In one line, give reported Activity of the entry O=C(NCc1ccccc1)/C(=C/c1cn(-c2ccccc2)nc1-c1ccccc1)CC(=O)c1ccc(Cl)cc1 .
Result: 4

Task: In one line, give reported Activity of the entry O=C(C/C(=C\c1cn(-c2ccccc2)nc1-c1ccccc1)c1n[nH]c(=S)o1)c1ccc(Cl)cc1 .
Result: 14

Task: In one line, give reported Activity of the entry NC(=O)NNC(=O)/C(=C/c1cn(-c2ccccc2)nc1-c1ccccc1)CC(=O)c1ccc(Cl)cc1 .
Result: 42.8

Task: In one line, give reported Activity of the entry NNC(=O)/C(=C/c1cn(-c2ccccc2)nc1-c1ccccc1)CC(=O)c1ccc(Cl)cc1 .
Result: 26

Task: In one line, give reported Activity of the entry O=C(C/C(=C\c1cn(-c2ccccc2)nc1-c1ccccc1)c1n[nH]c(=S)[nH]1)c1ccc(Cl)cc1 .
Result: 0

Task: In one line, give reported Activity of the entry O=C(C/C(=C\c1cn(-c2ccccc2)nc1-c1ccccc1)c1n[nH]c(=O)[nH]1)c1ccc(Cl)cc1 .
Result: 0
